Kindly supply the reported TGI values for the records listed here.
- Test system: COLO 205 colon
- Assay explanation: NCI tumour cell line growth inhibition, 48 h
Give just the number in µM; leave the unit off.

I am curious: what TGI value has been reported for O=c1[nH][nH]c(=O)c2c(O)c(-c3ccccc3)ncc12 ? 399

I am curious: what TGI value has been reported for CC[C@H](C)C(=O)O[C@H]1CCC=C2C=C[C@H](C)[C@H](CC[C@@H]3C[C@@H](O)CC(=O)O3)[C@H]21 ? 82

I am curious: what TGI value has been reported for CCN(CC)CCCNC(=O)c1ccccc1Nc1c(Cl)cccc1Cl ? 28

----------
Kindly supply the reported TGI values for the records listed here.
- Test system: PC-3 prostate
- Assay explanation: NCI tumour cell line growth inhibition, 48 h
Give just the number in µM; leave the unit off.

I am curious: what TGI value has been reported for Cc1cc2oc(=O)cc(OC/C=C3/CCC(=O)O3)c2cc1C ? 11.4

I am curious: what TGI value has been reported for CC(C)C1CCC(=O)CC1CCCCC1CC(=O)CC1O[Si](C)(C)C(C)(C)C (centres undefined) ? 43.1

I am curious: what TGI value has been reported for COc1ccccc1-c1ccc2c(N)c(C(=O)c3ccc4c(c3)OCO4)sc2n1 ? 40.3

I am curious: what TGI value has been reported for CC(C)c1ccc(C(O)(C(=O)O)c2ccc(C(C)C)cc2)cc1 ? 51.1
